Target: MIF-CD74 Binding (biotin-labeled recombinant human MIF, recombinant human MIF receptor CD74 ectodomain) (Homo sapiens, UniProt P14174)
Sequence (P14174 2-115 limits assumed): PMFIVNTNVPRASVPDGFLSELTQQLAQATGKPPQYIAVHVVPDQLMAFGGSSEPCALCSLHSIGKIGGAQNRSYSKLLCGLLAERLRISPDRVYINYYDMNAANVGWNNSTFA
Assay: MIF-CD74 binding (capture) assay
Settings: Table 2; read-out: MIF-CD74 IC50
endpointLabel: IC50
Could you write the number and then its unit?

Before answering, review these 3 worked examples.
O=C(O)COc1ccc2occ(C(=O)c3ccccc3)c2c1 | 1500 µM
CC(=O)Oc1ccc2nc(-c3cc4ccccc4o3)oc(=O)c2c1 | 2.5 µM
O=C(c1cc2ccccc2o1)N1CCc2ccccc21 | 4 µM

Moving on to the next compound.
IC50 recorded for this compound, "c1ccc(COc2ccc3cc(-c4cc[nH]c4)[nH]c3c2)cc1" , is 5000 µM
